Target: HuR (Homo sapiens)
Construct: expressed in transfected cells; host or cells: U251 glioma cells, doxycycline-inducible constructs
Sequence (Q15717 whole entry): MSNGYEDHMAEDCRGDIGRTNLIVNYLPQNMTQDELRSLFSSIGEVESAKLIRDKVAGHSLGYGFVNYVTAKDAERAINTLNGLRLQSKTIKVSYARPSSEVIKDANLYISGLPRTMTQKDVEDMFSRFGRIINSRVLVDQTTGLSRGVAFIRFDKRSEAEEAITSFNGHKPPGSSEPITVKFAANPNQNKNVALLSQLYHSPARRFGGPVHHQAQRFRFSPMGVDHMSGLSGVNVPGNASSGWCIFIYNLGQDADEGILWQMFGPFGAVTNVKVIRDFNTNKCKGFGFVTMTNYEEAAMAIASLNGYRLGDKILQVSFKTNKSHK
Test: cell-based split firefly luciferase-HuR dimerization assay
Conditions: Concn 50 uM
Exercise: state measured HuR N/C Imax % Inh for each of the compounds provided.
Report the figure in % without appending any unit label.

Given CCCNc1ccc2ncc(-c3ccc4[nH]ncc4c3)n2n1 , state its recorded HuR N/C Imax % Inh.
90

Now this one: CCCN(C)c1ccc2ncc(-c3ccc4cnn(C)c4c3)n2n1
91

Now this one: CN1CCN(Cc2ccc(-c3cnc4[nH]cc(-c5ccc6[nH]ccc6c5)c4c3)cc2)CC1
89
